# tgt: Probable G-protein coupled receptor 142 (Mus musculus, UniProt Q7TQN9)
# Sequence (Q7TQN9 whole entry): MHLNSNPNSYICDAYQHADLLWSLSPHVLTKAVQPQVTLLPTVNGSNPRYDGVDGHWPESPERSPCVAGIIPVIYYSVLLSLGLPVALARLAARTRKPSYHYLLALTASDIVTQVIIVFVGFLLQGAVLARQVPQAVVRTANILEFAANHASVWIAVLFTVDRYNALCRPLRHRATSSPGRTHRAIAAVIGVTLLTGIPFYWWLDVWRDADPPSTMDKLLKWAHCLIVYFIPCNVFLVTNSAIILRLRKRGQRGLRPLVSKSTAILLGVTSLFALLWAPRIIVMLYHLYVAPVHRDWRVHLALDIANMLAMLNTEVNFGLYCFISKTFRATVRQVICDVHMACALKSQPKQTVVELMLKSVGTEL
# test-details: Agonist activity at mouse GPR142 assessed as inositol phosphate accumulation
# Type: functional
property-name: pEC50
# log scale: pEC50 equals minus log10 of the concentration in mol/L

Task: Look up pEC50 for this compound: `N[C@@H](Cc1ccccc1)C(=O)Nc1cc(-c2ccncc2)c[nH]c1=O`
Output: 5.85
